- Tested on: K-562 leukemia
- procedure.text: NCI tumour cell line growth inhibition, 48 h
// values below are reported TGI

Consider the following illustrative entries.
>>> experimental_value("Cc1cc(Br)cc(C)c1NC(=O)C(=O)C(C(=O)c1ccc(Cl)c(Cl)c1)C1OC(=O)c2ccccc21 (centres undefined)")
"> 100 µM"
>>> experimental_value("c1ccc(CN(Cc2ccccn2)Cn2cccn2)nc1")
"> 100 µM"
>>> experimental_value("COc1cc(Nc2ncc(-c3ccccc3)o2)cc(OC)c1OC")
"> 25 µM"
>>> experimental_value("C=C(Cl)C(=C)CCC(Cl)C(C)(C)Cl (centres undefined)")
"> 100 µM"
>>> experimental_value("CC1=CC(=O)c2[nH]c3ccccc3c2C1=O")
"14 µM"

Name the recorded TGI for O=C(O)C(O)C(O)C1[O][Sb][O]C1CO (centres undefined) .
> 100 µM

Name the recorded TGI for O=C(Nc1ccc(-c2nc3ccc(NC(=O)c4ccc(Cl)cc4)cc3[nH]2)cc1)c1ccc(Cl)cc1 .
4.57 µM

Name the recorded TGI for O=C(O)C1C2CC3CC2CC31 (centres undefined) .
> 100 µM

Name the recorded TGI for Cc1nc(-c2ccc(Cl)cc2)cn2c1nc1ccccc12 .
> 100 µM

Name the recorded TGI for CN(CCc1ccccn1)C(=S)N/N=C/c1ccccn1 .
0.0493 µM

----------
- System: NCI/ADR-RES ovarian
- procedure.text: NCI tumour cell line growth inhibition, 48 h; in the data active = GI50 below about 0.43 µM; inactive = the rest
Tick one outcome: Y for active, N for inactive

The following molecules have reported results that may help.
>>> classification("O=C(/C=C/c1cccs1)Nc1ncc(Cc2ccccc2F)s1")
"Y"
>>> classification("CCn1c(-c2cc3ccccc3cc2OC(=O)c2ccccc2)n[nH]c1=S")
"N"
>>> classification("Fc1ccc(-c2c(-c3ccncc3)n(CCN3CCOCC3)c3cccnc23)cc1")
"N"

Now examine the next entry.
I'd appreciate the recorded outcome for O=C(O)c1c(Cl)c(Cl)c(Cl)c(Cl)c1-c1c2cc(I)c(=O)c(I)c-2oc2c(I)c(O)c(I)cc12 from this test.
N

----------
- Test system: RXF 393 renal
- procedure.text: NCI tumour cell line growth inhibition, 48 h
// values below are reported TGI
# unit: µM | format: bare number

Consider the following illustrative entries.
>>> experimental_value("Clc1cccc(C2SCc3nc4ccccc4n32)c1Cl (stereo unspecified)")
29.6
>>> experimental_value("C=C1C(=O)OC2C1CC1OC2C(C)CCC/C(C)=C\\CCC1(C)O (stereo unspecified)")
17.9
>>> experimental_value("O=C(/C=C/c1cccs1)Nc1ncc(Cc2ccccc2F)s1")
0.508

Now, please, on to the next molecule.
Name the recorded TGI for C=C1C(=O)C23C(CC(OC(C)=O)C1[C@@H]2OC(C)=O)C1(C)C(OC(C)=O)CCC(C)(C)C1C[C@@H]3OC(C)=O (stereo partly specified) .
0.831

----------
- System: HOP-62 NSCLC
- procedure.text: NCI tumour cell line growth inhibition, 48 h
assay.metric: TGI (µM)
# unit: µM | format: bare number

>>> experimental_value("CC[N+]1(C)CCC(O)(/C=C/c2ccc(Cl)c(Cl)c2)C(C(=O)/C=C/c2ccc(Cl)c(Cl)c2)C1 (stereo not given)")
6.8

Now, please, on to the next molecule.
Record lookup: for HOP-62 NSCLC, what TGI belongs to COc1ccc(/C=C(\C#N)c2nc(-c3cc4ccccc4oc3=O)cs2)cc1 ?
29.5

----------
// values below are reported TGI
- System: MDA-MB-435
- procedure.text: NCI tumour cell line growth inhibition, 48 h

Consider the following illustrative entries.
>>> experimental_value("O=C(n1c(=O)n(-c2ccc([N+](=O)[O-])cc2)c(=O)n1C(=O)C(Cl)(Cl)Cl)C(Cl)(Cl)Cl")
"> 100 µM"
>>> experimental_value("O=c1oc2ccccc2cc1-c1nc2ccccc2s1")
"18.1 µM"
>>> experimental_value("N#Cc1nc(Cc2cccs2)oc1N")
"> 100 µM"
>>> experimental_value("O=c1[nH]nc(Cc2ccc([N+](=O)[O-])cc2)[nH]1")
"> 100 µM"

Name the recorded TGI for CCOC(=O)c1cc2cc([N+](=O)[O-])ccc2oc1=O .
> 100 µM

Name the recorded TGI for CCCCCCCCCCCOCCC1C(C(C)OCCN2CCCC2)OC2OC(C)(C)OC21 (stereo unspecified) .
3.51 µM

----------
// values below are reported TGI
- Tested on: SK-MEL-28 melanoma
- procedure.text: NCI tumour cell line growth inhibition, 48 h

>>> experimental_value("Cc1ccc(NC(=O)NC23CC4CC(CC(F)(C4)C2)C3)cc1")
"> 100 µM"
>>> experimental_value("CN(NC(=O)/C(=C/C=C/c1ccccc1)NC(=O)c1ccccc1)C1=C(Cl)C(=O)[N+](c2ccccc2)=CC1")
"37.1 µM"
>>> experimental_value("CCOc1ccc(N2C(N)=NC(N)=NC2(C)C)cc1")
"> 100 µM"

Name the recorded TGI for CNc1ccc([N+](=O)[O-])cc1C(=O)N1CCC[C@H]1CO .
> 100 µM

Name the recorded TGI for O=C(/C=C/c1cccs1)Nc1ncc(Cc2ccccc2F)s1 .
> 100 µM

----------
- Test system: OVCAR-3 ovarian
- procedure.text: NCI tumour cell line growth inhibition, 48 h
// values below are reported TGI
# unit: µM | format: bare number

>>> experimental_value("CC(=O)OCC1OC(O[C@@H]2C[C@H]3C(C)(C)[C@H](OC(C)=O)CC[C@]3(C)[C@H]3CC[C@@H]4[C@]5(CC[C@@]4(C)[C@@]32C)O[C@@H]([C@H](O)C(C)(C)O)C[C@@H]5C)C(O)C(O)C1O (stereo partly drawn)")
20.5

Name the recorded TGI for COc1cc(Nc2ncc(-c3ccccc3)o2)cc(OC)c1OC .
24.9

----------
- Tested on: KM12 colon
- procedure.text: NCI tumour cell line growth inhibition, 48 h
// values below are reported TGI

Consider the following illustrative entries.
>>> experimental_value("COc1cc(C=NCC(=O)CSC(c2ccccc2)c2ccccc2)cc(OC)c1OC")
"82.1 µM"
>>> experimental_value("Clc1ccc(CCN2CCOCC2)c(Cl)c1")
"> 100 µM"
>>> experimental_value("CCCCCCCCCCCOCCC1C(C(C)OCCN2CCCC2)OC2OC(C)(C)OC21 (stereo unspecified)")
"1.78 µM"
>>> experimental_value("Fc1cc(Nc2ccc3c(OCCCN4CCOCC4)cccc3n2)ccc1Cl")
"5.46 µM"
>>> experimental_value("N#Cc1nc(Cc2cccs2)oc1N")
"> 100 µM"

Now, please, on to the next molecule.
Record lookup: for KM12 colon, what TGI belongs to COC(=O)[C@]12CCC(=O)N1[C@H](C(=O)O)Cc1c2[nH]c2ccccc12 ?
> 100 µM

----------
// values below are reported TGI
- System: DMS 114 small cell lung
- procedure.text: NCI tumour cell line growth inhibition, 48 h
# unit: µM | format: bare number

Consider the following illustrative entries.
>>> experimental_value("C=C1C(=O)C23C(CC(OC(C)=O)C1[C@@H]2OC(C)=O)C1(C)C(OC(C)=O)CCC(C)(C)C1C[C@@H]3OC(C)=O (some centres not stated)")
2.4
>>> experimental_value("Cc1ccc(S(=O)(=O)ON=C2CC(c3ccccc3)N(C)C(c3ccccc3)C2)cc1 (configuration not stated)")
29.9

Name the recorded TGI for O=C(O)C(O)C(O)C1[O][Sb][O]C1CO (configuration not stated) .
98.3

Name the recorded TGI for COc1ccc2c(c1)[n+]([O-])c(-c1ccc(Cl)c(Cl)c1)c(N)[n+]2[O-] .
32.1

Name the recorded TGI for Cc1cc(C(=O)NCCN(C)C)c2nc3ccccc3nc2c1 .
14.4

Name the recorded TGI for O=C1CCCc2c(O)ccc(O)c21 .
74.9

Name the recorded TGI for COS(=O)CCOC(=O)c1ccccc1SSc1ccccc1C(=O)OCCS(=O)OC (configuration not stated) .
34.1

Name the recorded TGI for CC1=CC(=O)c2[nH]c3ccccc3c2C1=O .
7.82

----------
- Test system: SNB-19 CNS
- procedure.text: NCI tumour cell line growth inhibition, 48 h
// values below are reported GI50

Consider the following illustrative entries.
>>> experimental_value("COc1cc(SC)ccc1C(=O)N1CCCC(C)C1 (centres undefined)")
"> 100 µM"
>>> experimental_value("NC(=O)c1ccc(-c2c3ccccc3cc3c2ccc2ccccc23)cc1")
"5.51 µM"

Name the recorded GI50 for C[C@@H]1CC[C@H]2C(CN3CCN(CC4=C(C(F)(F)F)O[C@@H]5O[C@@]6(C)CC[C@H]7[C@H](C)CC[C@@H]4[C@@]57OO6)CC3)=C(C(F)(F)F)O[C@@H]3O[C@@]4(C)CC[C@@H]1[C@]32OO4 .
7.75 µM

Name the recorded GI50 for COc1cc(C(=O)c2c(-c3ccccc3)oc3ccccc23)cc(OC)c1O .
6.76 µM

src = PubChem BioAssay (NCI)
